Attribution: ChEMBL document CHEMBL3885861

Assignment: determine reported BUN for the given molecules.
species: Rattus norvegicus; test: Open TG-GATES - Regimen: Single; type: toxicity, organism-based, Sprague-Dawley; parameters: regimen Single, gender Male, age 6 weeks; settings: in vivo, po, 0 mg/kg, 24 h, tissue Plasma, route gavage, dose level Control
Answers are plain numbers, in mg/dL.

Hi! Can you tell me BUN for each of these molecules?
1. NNC(=O)c1ccncc1
2. COc1ccc2[nH]c([S+]([O-])Cc3ncc(C)c(OC)c3C)nc2c1 (stereo unspecified)

A:
[14.8, 17.4]

Give BUN for each listed item.
1. O=C(CCCN1CCC(O)(c2ccc(Cl)cc2)CC1)c1ccc(F)cc1
2. CCOC(=O)CCC(=O)O[C@H]1[C@H](O[C@@H]2[C@@H](C)[C@H](O[C@H]3C[C@@](C)(OC)[C@@H](O)[C@H](C)O3)[C@@H](C)C(=O)O[C@H](CC)[C@@](C)(O)[C@H](O)[C@@H](C)C(=O)[C@H](C)C[C@@]2(C)O)O[C@H](C)C[C@@H]1N(C)C [ERYTHROMYCIN ETHYLSUCCINATE]
3. CCCNC(=O)NS(=O)(=O)c1ccc(Cl)cc1 [CHLORPROPAMIDE]
4. NC(N)=Nc1nc(CSCCC(N)=NS(N)(=O)=O)cs1

A:
1: 19.2; 2: 17.8; 3: 14.6; 4: 13.4

* * *

species on record: Rattus norvegicus; experiment: Open TG-GATES - Regimen: Daily Repeat; format: toxicity, organism-based, Sprague-Dawley; set-up: regimen Daily Repeat, gender Male, age 6 weeks; conditions: in vivo, po, 0 mg/kg, […], tissue Plasma, route gavage, dose level Control, time 7 day
property: TC (mg/dL)
One number for each entry, in mg/dL.

{"compound": "CN(C)CCCN1c2ccccc2CCc2ccccc21", "property": "TC", "result": 81.4}
{"compound": "CCOc1ccc(NC(=O)CC(C)O)cc1 (stereo unspecified)", "property": "TC", "result": 77.8}
{"compound": "NNC(=O)c1ccncc1", "property": "TC", "result": 81.6}
{"compound": "CN1C(=O)CN=C(c2ccccc2)c2cc(Cl)ccc21", "property": "TC", "result": 92.8}
{"compound": "CC(C)OC(=O)C(C)(C)Oc1ccc(C(=O)c2ccc(Cl)cc2)cc1 [FENOFIBRATE]", "property": "TC", "result": 72.2}

Please turn your attention to the following entry.
Q: Fill in: TC of COc1ccc2[nH]c([S+]([O-])Cc3ncc(C)c(OC)c3C)nc2c1 (stereo unspecified) is ___
A: 78.8

* * *

organism: Rattus norvegicus; assay: Open TG-GATES - Regimen: Single; format: toxicity, organism-based, Sprague-Dawley; parameters: regimen Single, gender Male, age 6 weeks; conditions: in vivo, po, 100 mg/kg, 6 h, tissue Plasma, route gavage, dose level Low
property: Cl (meq/L)
One number for each entry, in meq/L.

{"compound": "COc1ccc2[nH]c([S+]([O-])Cc3ncc(C)c(OC)c3C)nc2c1 (centres undefined)", "Cl (meq/L)": 102.4}
{"compound": "CCOC(=O)CCC(=O)O[C@H]1[C@H](O[C@@H]2[C@@H](C)[C@H](O[C@H]3C[C@@](C)(OC)[C@@H](O)[C@H](C)O3)[C@@H](C)C(=O)O[C@H](CC)[C@@](C)(O)[C@H](O)[C@@H](C)C(=O)[C@H](C)C[C@@]2(C)O)O[C@H](C)C[C@@H]1N(C)C [ERYTHROMYCIN ETHYLSUCCINATE]", "Cl (meq/L)": 104}
{"compound": "COC1=CC(=O)C[C@@H](C)[C@]12Oc1c(Cl)c(OC)cc(OC)c1C2=O", "Cl (meq/L)": 103.4}

Switching to the query record.
Q: What value of Cl has been recorded for this entry: NC(N)=Nc1nc(CSCCC(N)=NS(N)(=O)=O)cs1
A: 103.2

* * *

species: Rattus norvegicus; test: Open TG-GATES - Regimen: Daily Repeat; format: toxicity, organism-based, Sprague-Dawley; design: regimen Daily Repeat, gender Male, age 6 weeks; conditions: in vivo, po, 300 mg/kg, […], tissue Plasma, route gavage, dose level Middle, time 14 day
property: LDH
Quick note: unit goes after the number.

Below are worked cases with known answers.
{"molecule": "CCOC(=O)CCC(=O)O[C@H]1[C@H](O[C@@H]2[C@@H](C)[C@H](O[C@H]3C[C@@](C)(OC)[C@@H](O)[C@H](C)O3)[C@@H](C)C(=O)O[C@H](CC)[C@@](C)(O)[C@H](O)[C@@H](C)C(=O)[C@H](C)C[C@@]2(C)O)O[C@H](C)C[C@@H]1N(C)C [ERYTHROMYCIN ETHYLSUCCINATE]", "property": "LDH", "result": "157.8 IU/L"}
{"molecule": "CCOc1ccc(NC(=O)CC(C)O)cc1 (stereo not given) [BUCETIN]", "property": "LDH", "result": "72.8 IU/L"}
{"molecule": "COc1ccc2[nH]c([S+]([O-])Cc3ncc(C)c(OC)c3C)nc2c1 (stereo not given) [OMEPRAZOLE]", "property": "LDH", "result": "198 IU/L"}

Give LDH for each listed item.
1. NC(N)=Nc1nc(CSCCC(N)=NS(N)(=O)=O)cs1 [FAMOTIDINE]
2. COC1=CC(=O)C[C@@H](C)[C@]12Oc1c(Cl)c(OC)cc(OC)c1C2=O [GRISEOFULVIN]

A:
1. 151.6 IU/L
2. 112.2 IU/L

* * *

Provide the reported Ca of each item.
species: Rattus norvegicus; test: Open TG-GATES - Regimen: Daily Repeat; type: toxicity, organism-based, Sprague-Dawley; design: regimen Daily Repeat, gender Male, age 6 weeks; settings: in vivo, po, 1000 mg/kg, 72 h, tissue Plasma, route gavage, dose level High, time 3 day
One number for each entry, in mg/dL.

Below, 4 compounds whose answers are already recorded.
{"compound": "COc1ccc2[nH]c([S+]([O-])Cc3ncc(C)c(OC)c3C)nc2c1 (stereo not given)", "property": "Ca", "result": 10}
{"compound": "NC(N)=Nc1nc(CSCCC(N)=NS(N)(=O)=O)cs1", "property": "Ca", "result": 10.8}
{"compound": "CCOC(=O)CCC(=O)O[C@H]1[C@H](O[C@@H]2[C@@H](C)[C@H](O[C@H]3C[C@@](C)(OC)[C@@H](O)[C@H](C)O3)[C@@H](C)C(=O)O[C@H](CC)[C@@](C)(O)[C@H](O)[C@@H](C)C(=O)[C@H](C)C[C@@]2(C)O)O[C@H](C)C[C@@H]1N(C)C [ERYTHROMYCIN ETHYLSUCCINATE]", "property": "Ca", "result": 10.5}
{"compound": "COC1=CC(=O)C[C@@H](C)[C@]12Oc1c(Cl)c(OC)cc(OC)c1C2=O", "property": "Ca", "result": 10.8}

Now consider a different compound.
Q: Report Ca for CCOc1ccc(NC(=O)CC(C)O)cc1 (stereo not given) please.
A: 10.6

* * *

species on record: Rattus norvegicus; assay: Open TG-GATES - Regimen: Daily Repeat; type: toxicity, organism-based, Sprague-Dawley; set-up: regimen Daily Repeat, gender Male, age 6 weeks; conditions: in vivo, po, 100 mg/kg, […], tissue Plasma, route gavage, dose level Low, time 28 day
Would you kindly list RALB for each of these compounds?
One number for each entry, in g/dL.

{"compound": "COc1ccc2[nH]c([S+]([O-])Cc3ncc(C)c(OC)c3C)nc2c1 (stereo not given)", "RALB, g/dL": 3.6}
{"compound": "COC1=CC(=O)C[C@@H](C)[C@]12Oc1c(Cl)c(OC)cc(OC)c1C2=O", "RALB, g/dL": 3.4}
{"compound": "CCOC(=O)CCC(=O)O[C@H]1[C@H](O[C@@H]2[C@@H](C)[C@H](O[C@H]3C[C@@](C)(OC)[C@@H](O)[C@H](C)O3)[C@@H](C)C(=O)O[C@H](CC)[C@@](C)(O)[C@H](O)[C@@H](C)C(=O)[C@H](C)C[C@@]2(C)O)O[C@H](C)C[C@@H]1N(C)C [ERYTHROMYCIN ETHYLSUCCINATE]", "RALB, g/dL": 3.1}

# batch size: 2; output RALB per entry
1. NC(N)=Nc1nc(CSCCC(N)=NS(N)(=O)=O)cs1
2. CCOc1ccc(NC(=O)CC(C)O)cc1 (stereo not given)

A:
1. 3.3
2. 2.9

* * *

Would you kindly list KIDNEY_L for each of these compounds?
species on record: Rattus norvegicus; assay: Open TG-GATES - Regimen: Daily Repeat; type: toxicity, organism-based, Sprague-Dawley; set-up: regimen Daily Repeat, gender Male, age 6 weeks; conditions: in vivo, po, 1000 mg/kg, 72 h, tissue Kidney, route gavage, dose level High, time 3 day
One number for each entry, in g.

Recorded results for 4 compounds are shown here.
{"compound": "COC1=CC(=O)C[C@@H](C)[C@]12Oc1c(Cl)c(OC)cc(OC)c1C2=O", "KIDNEY_L (g)": 1}
{"compound": "NC(N)=Nc1nc(CSCCC(N)=NS(N)(=O)=O)cs1", "KIDNEY_L (g)": 1}
{"compound": "CCOC(=O)CCC(=O)O[C@H]1[C@H](O[C@@H]2[C@@H](C)[C@H](O[C@H]3C[C@@](C)(OC)[C@@H](O)[C@H](C)O3)[C@@H](C)C(=O)O[C@H](CC)[C@@](C)(O)[C@H](O)[C@@H](C)C(=O)[C@H](C)C[C@@]2(C)O)O[C@H](C)C[C@@H]1N(C)C [ERYTHROMYCIN ETHYLSUCCINATE]", "KIDNEY_L (g)": 1}
{"compound": "CC(C)OC(=O)C(C)(C)Oc1ccc(C(=O)c2ccc(Cl)cc2)cc1 [FENOFIBRATE]", "KIDNEY_L (g)": 0.9}

Dear colleague, could you please provide KIDNEY_L for the compounds listed below?
1. COc1ccc2[nH]c([S+]([O-])Cc3ncc(C)c(OC)c3C)nc2c1 (stereo unspecified)
2. CCOc1ccc(NC(=O)CC(C)O)cc1 (stereo unspecified)

A:
1. 1
2. 1.1
